Numbers sourced from PubChem BioAssay (NCI).

Experiment: NCI Yeast Anticancer Drug Screen. Data for the rad52 strain (AID 147);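 note: 0% = growth of vehicle-treated control cultures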
Settings: S. cerevisiae rad52 mutant growth inhibition; at 33.0 µM; active compounds read high
The panel holds about 79,000 compounds, 15% with a hit somewhere; the sample as a whole holds those more often.
Param threshold (20%) applies to growth inhibition; output TRUE when value >= threshold, FALSE when value < threshold.

Can O=C(O)C(=Cc1ccc(-c2ccccc2)cc1)C(=O)O be said to have growth inhibition at or above 20%?
TRUE

Can COc1ccc(C(C)c2cc3c(cc2OCC(C)=O)OCO3)cc1 (configuration not stated) be said to have growth inhibition at or above 20%?
FALSE

Can CCCCCCCN1C(=O)c2ccccc2C1=O be said to have growth inhibition at or above 20%?
FALSE

Can COC(=O)C(Cc1c[nH]c2ccccc12)N1CN(C)c2ccccc2C1=O (configuration not stated) be said to have growth inhibition at or above 20%?
FALSE

Can CCS(=O)(=O)Nc1ccc(Nc2c3ccccc3nc3ccccc23)c(OC)c1 be said to have growth inhibition at or above 20%?
TRUE

Can CCN(CC)C(=S)SC(=S)N(CC)CC be said to have growth inhibition at or above 20%?
TRUE

Can C/C(=N\Sc1ccccc1)c1ccccc1O be said to have growth inhibition at or above 20%?
TRUE

Can CC(=O)O/N=C1C=C/C(=C(/C#N)c2ccccc2)C=C/1C be said to have growth inhibition at or above 20%?
TRUE

Can O=C(C#Cc1ccccc1)Nc1ccccc1 be said to have growth inhibition at or above 20%?
TRUE

Can O=C1Nc2ccc(Br)cc2C1=Nc1ccc(Cl)cc1 be said to have growth inhibition at or above 20%?
TRUE

Can O=C1c2cccc3cccc(c23)C(=O)N1CCNCCN1C(=O)c2cccc3cccc(c23)C1=O be said to have growth inhibition at or above 20%?
FALSE

Can O=[N+]([O-])c1ccc(S(=O)(=O)Cc2ccccc2)c([N+](=O)[O-])c1 be said to have growth inhibition at or above 20%?
TRUE

Can Nc1cc2c(cc1N)-c1ccccc1C2=O be said to have growth inhibition at or above 20%?
TRUE

Can O=C1CCC(Cc2ccccc2)CN1 (configuration not stated) be said to have growth inhibition at or above 20%?
FALSE

Can CC(C)OC(=O)NNc1cccc(Cl)c1 be said to have growth inhibition at or above 20%?
TRUE

Can COc1cc([C@@H]2c3cc4c(cc3[C@@H](NC(=O)NO)[C@H]3COC(=O)[C@H]23)OCO4)cc(OC)c1O be said to have growth inhibition at or above 20%?
TRUE

Can O=c1c2ccccc2nc(-c2cccc([N+](=O)[O-])c2)n1O be said to have growth inhibition at or above 20%?
TRUE

---

Would you kindly list growth inhibition for each of these molecules?
Assay: NCI Yeast Anticancer Drug Screen. Data for the mlh1 rad18 strain (AID 175)
Conditions: S. cerevisiae mlh1 rad18 strain growth inhibition; at 50.0 µM (retest, dose inferred, filed as 5.0); active compounds read high
Experimental: Growth inhibition of yeast strains with defined genetic alterations is measured as a screen for potential anti-cancer activity. Selected strains with alterations in DNA damage repair or cell cycle control were exposed to compounds and growth inhibition was measured relative to vehicle treated controls. The strain used in this assay is mlh1 rad18
Compounds without any hit were thinned out: in the full panel of roughly 79,000, 15% have a hit.
The response must be a number in % with no trailing unit.

Noted for CCOc1ccc2nc3ccccc3c(N)c2c1 : its growth inhibition reads 82

Noted for Nc1ccc2cc(Br)ccc2c1Br : its growth inhibition reads 57

Noted for COC(=O)c1ccccc1N=NNc1cccc(SC)c1 : its growth inhibition reads 36

Noted for CN(N=O)C(=O)Nc1ccc(C(=O)O)cc1 : its growth inhibition reads 51

Noted for C=CCNC1=C2C[C@@H](C)C[C@H](OC)[C@H](O)[C@@H](C)/C=C(\C)[C@H](OC(N)=O)[C@@H](OC)/C=C\C=C(/C)C(=O)NC(=CC1=O)C2=O : its growth inhibition reads 97

Noted for CC1(C)CC(=O)C(/C=N/c2nc(-c3ccc(Br)cc3)cs2)=C(O)C1 : its growth inhibition reads 99

Noted for CC(=O)N1C=Cc2c(c(C)c3c([nH]c4ccccc43)c2C)C1 : its growth inhibition reads 95

---

Assay: NCI Yeast Anticancer Drug Screen. Data for the mlh1 strain (AID 171);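 note: 0% = growth of vehicle-treated control cultures of the same strain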
Conditions: S. cerevisiae mlh1 strain growth inhibition; at 33.0 µM
About 79,000 compounds went through this panel and 15% of them were active in at least one assay; those are over-represented in the sample as a whole. Activity calls are given as the source filed them. Cut-off read from the data, not from the text of the source: active = growth inhibition above about 70%; inactive = the rest.
Just give me one of these, please: true (1) = active, false (0) = inactive

Assay outcome for O=[N+]([O-])c1ccc(/C=C\c2ccc3c(c2)OCO3)c([N+](=O)[O-])c1 : what was it?
false (0)

Assay outcome for CCOC(=O)Nc1ccc(C)c(NC(=O)OCC)c1 : what was it?
false (0)

Assay outcome for CCCCN(CCCC)c1ccc(N=Nc2ccc(S(=O)(=O)O)cc2)cc1 : what was it?
true (1)

Assay outcome for O=C1C(=C2CCCC2)CCC1CN1CCCCC1 (centres undefined) : what was it?
true (1)

---

Test: NCI Yeast Anticancer Drug Screen. Data for the rad14 strain (AID 159);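 note: 0% = growth of vehicle-treated control cultures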
Conditions: S. cerevisiae rad14 strain growth inhibition; at 1.2 µM; active compounds read high
About 79,000 compounds went through this panel and 15% of them were active in at least one assay; those are over-represented in the sample as a whole.
readout_name: growth inhibition (%)
The response must be a number in % with no trailing unit.

Noted for O=C1c2ccccc2C(=O)c2c(O)c(NCCNCCO)cc(O)c21 : its growth inhibition reads -5

Noted for CCCCCCCCCCCCOCCOCCOCC(N)=O : its growth inhibition reads -9

Noted for COc1cc2c(cc1O)[C@H](C)C(c1ccccc1OC)O2 (some centres not stated) : its growth inhibition reads -7

Noted for CN1CCN(C(=O)c2cccc3cccc(C(=O)O)c23)CC1 : its growth inhibition reads 12

Noted for CC(C)OC(=O)NNc1cc(Cl)ccc1Cl : its growth inhibition reads -4

Noted for O=C(O)/C=C\C(=O)Nc1ccc2c(c1)Cc1cc(Cl)ccc1-2 : its growth inhibition reads -3

Noted for CC1=NN(C(=O)CC(=O)NC(=O)/C=C\c2ccccc2)C(=O)C1N=Nc1ccc([N+](=O)[O-])cc1 (configuration not stated) : its growth inhibition reads 1

---

Test: NCI Yeast Anticancer Drug Screen. Data for the mec2-1 strain (AID 157)
Conditions: S. cerevisiae mec2-1 strain, at 3.7 µM, active compounds read high
About 79,000 compounds went through this panel and 15% of them were active in at least one assay; those are over-represented in the sample as a whole.
Would you kindly list growth inhibition for each of these compounds?
The response must be a number in % with no trailing unit.

Noted for O=C(O)/C=C\C(=O)Nc1ccc2c(c1)Cc1cc(Cl)ccc1-2 : its growth inhibition reads -1

Noted for COC1/C=C\C=C(/C)C(=O)NC2=CC(=O)C(=O)C(=C2O)CC(C)CC(OC)C(O)C(C)/C=C(\C)C1OC(N)=O (stereo not given) : its growth inhibition reads 50

Noted for CCCCCCNCCCNc1c2ccccc2nc2cccc([N+](=O)[O-])c12 : its growth inhibition reads 40

Noted for CC1CCC(C2=CSC3CCCCC3N2)CC1 (stereo not given) : its growth inhibition reads 5

Noted for Cc1cccc2c(Cl)c3cccc(C)c3nc12 : its growth inhibition reads -13

Noted for COc1ccc(C2CC(C)(N3CCCC3)Oc3cc4c(cc32)OCO4)cc1 (stereo not given) : its growth inhibition reads -1

Noted for C/C(=N\OCC(O)CNCCSCc1ccccc1)c1ccccc1Cl (stereo not given) : its growth inhibition reads 4

Noted for O=C(NO)c1coc2ccccc2c1=O : its growth inhibition reads -5

Noted for NC(=S)N/N=C1\c2ccccc2CCC1CCC1(O)CCc2ccccc2C1=O (stereo not given) : its growth inhibition reads 13

Noted for CCN(CC)C(=S)N/N=C(\C)c1ccccc1O : its growth inhibition reads -3

Noted for O=P(C(=S)Nc1c(Cl)cccc1Cl)(c1ccccc1)c1ccccc1 : its growth inhibition reads 9

Noted for O=C(NNc1ccccc1)C(CCCCNS(=O)(=O)Cc1ccccc1)NS(=O)(=O)Cc1ccccc1 (stereo not given) : its growth inhibition reads 8

Noted for O=[N+]([O-])c1ccc2nc(=S)[nH]n2c1 : its growth inhibition reads -1

Noted for C1=CCN([B-](c2ccccc2)[C+]2CCCCC2)C=C1 : its growth inhibition reads -2

Noted for O=C(C#Cc1ccccc1)/C=C/c1ccccc1 : its growth inhibition reads 2

---

Assay: NCI Yeast Anticancer Drug Screen. Data for the sgs1 strain (AID 173);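 note: 0% = growth of vehicle-only control cultures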
Settings: S. cerevisiae sgs1 mutant, at 1.2 µM, active compounds read high
Compounds without any hit were thinned out: in the full panel of roughly 79,000, 15% have a hit. Calls of active or inactive are those of the source. Rule as the data show it: active = growth inhibition above about 70%; inactive = the rest.
Would you kindly list growth inhibition for each of these molecules?

Noted for CCOP(=O)(OCC)/C(C#N)=C\c1cccc2ccccc12 : its growth inhibition reads 22% (inactive)

Noted for Cc1ccc(S(=O)(=O)Nc2cccc3cccnc23)cc1 : its growth inhibition reads 1% (inactive)

Noted for Cc1nc2sc3c(c2c(=O)o1)CCCC3 : its growth inhibition reads -2% (inactive)

Noted for CCCCCCCCNCCCCCCCC : its growth inhibition reads 11% (inactive)

Noted for CCC(=O)Nc1ccc(N=NN(C)C)cc1 : its growth inhibition reads -13% (inactive)

Noted for Brc1ccc(B2Nc3ccccc3N2)cc1 : its growth inhibition reads 0% (inactive)

Noted for CCS(=O)(=O)Nc1ccc(Nc2c3ccccc3nc3ccccc23)c(OC)c1 : its growth inhibition reads -14% (inactive)

Noted for O=C(O)c1c2ccc(Cl)cc2nc2[nH]c(=O)[nH]c(=O)c12 : its growth inhibition reads -39% (inactive)

Noted for Cc1ccc(Nc2n[nH]c(=S)s2)c(C)c1 : its growth inhibition reads -29% (inactive)

Noted for O=C1C=CC(=Nc2cccc3c2-c2ccccc2C3=O)O1 : its growth inhibition reads 7% (inactive)

Noted for NCCCSc1ccccc1 : its growth inhibition reads 0% (inactive)

Noted for O=C1Nc2ccc(Br)cc2C1=Nc1cccnc1 : its growth inhibition reads -32% (inactive)

Noted for NC(=S)N/N=C1\c2ccccc2CCC1CCC1(O)CCc2ccccc2C1=O (stereo unspecified) : its growth inhibition reads 34% (inactive)

Noted for CCOc1ccc2nc3ccccc3c(N)c2c1 : its growth inhibition reads 10% (inactive)

Noted for CN(C)CCNCCCNc1c2ccccc2nc2cccc([N+](=O)[O-])c12 : its growth inhibition reads 31% (inactive)

Noted for O=C(NCCCCN1CC2CCCC2C1)C(C1CCCCC1)C1CCCCC1 (stereo unspecified) : its growth inhibition reads 9% (inactive)

Noted for CC(C)Cc1ncc(CCCN=C(N)N)[nH]c1=O : its growth inhibition reads -13% (inactive)

Noted for NC(N)=NS(=O)(=O)c1ccc(Nc2c3ccccc3nc3c(C(=O)NC(CO)(CO)CO)cccc23)cc1 : its growth inhibition reads -1% (inactive)

Noted for CN(N=O)C(=O)Nc1ccc(C(=O)O)cc1 : its growth inhibition reads 2% (inactive)

Noted for O=[N+]([O-])c1ccc(/C=C\c2ccc3c(c2)OCO3)c([N+](=O)[O-])c1 : its growth inhibition reads -2% (inactive)

Noted for COc1ccc(-c2cc(-c3cc(C)cc(Cl)c3O)nc3[nH]c(=S)[nH]c(=S)c23)cc1 : its growth inhibition reads 1% (inactive)

Noted for O=C(O)/C=C\C(=O)Nc1ccc2c(c1)Cc1cc(Cl)ccc1-2 : its growth inhibition reads -2% (inactive)

Noted for Nc1ccc(S(=O)(=O)Nc2nc3c(c(=O)[nH]2)CCCC3)cc1 : its growth inhibition reads 36% (inactive)

Noted for CC(C)OP(=O)(OC(C)C)/C(Cl)=N/Nc1ccc([N+](=O)[O-])cc1 : its growth inhibition reads 28% (inactive)

Noted for O=C(O)c1ccccc1C(=O)OC1CCc2ccccc2C1 (stereo unspecified) : its growth inhibition reads -4% (inactive)

Noted for CC(=O)NC(c1nc2cc(C)c(C)cc2[nH]1)c1nc2cc(C)c(C)cc2[nH]1 : its growth inhibition reads -4% (inactive)
